src = patent US8178506B2

test system: HuVECs; assay: Endothelial tube formation assay in HuVECs; details: 75 nM oligomeric compound, Table 56
In the oligonucleotide strings, read from the 5' end, every base follows the letter of its sugar. An asterisk marks phosphorothioate; unmarked linkages are phosphodiester. Other units and linkages are bracketed, terminal groups are in braces. A string of capitals states the bases alone. e = 2'-O-(2-methoxyethyl) (MOE); [5mC] = 5-methylcytosine
Below: a set of entries, each annotated with reported % Activity Relative to UTC (tube formation).
PARAMETER_MEASURED: % Activity Relative to UTC (tube formation) (%)

• 327888 (antisense eA*eA*eT*eG*e[5mC]*e[5mC]*e[5mC]*e[5mC]*eT*eA*eA*eA*eA*eA*eT*e[5mC]*e[5mC]*eT*eT*eA*eT) [compound 327888] = 100.0
• 327887 (antisense eG*e[5mC]*eG*eA*e[5mC]*e[5mC]*eA*eT*eG*eG*e[5mC]*eT*eG*eT*eA*eG*eA*e[5mC]*eT*eG*eT*eT*eA) [compound 327887] = 57.1
• 327880 (antisense eA*e[5mC]*eA*eA*eA*eT*eT*e[5mC]*eG*eG*eT*eT*e[5mC]*eT*eA*e[5mC]*eA*eG*eG*eG*eT*eA) [compound 327880] = 57.1
• 327876 (antisense eA*eA*e[5mC]*eA*e[5mC]*eT*eG*eA*eT*eT*eT*e[5mC]*eA*eA*eA*eT*eG*eG*eT*eG*e[5mC]*eT*eA) [compound 327876] = 50.0
• 327873 (antisense e[5mC]*eT*eA*e[5mC]*e[5mC]*eA*eT*eA*eG*eG*eG*eT*eA*eA*eA*eA*e[5mC]*e[5mC]*eA*e[5mC]*eT) [compound 327873] = 100.0
